Hello, the source for this data is the Immune Epitope Database (IEDB), in case you need it.

- assayed.target: HLA-B*44:02
- assay.protocol: IEDB peptide-MHC binding, purified MHC/direct/fluorescence; filed as Kd, often an IC50 or EC50 that approximates it; bounds were set here for any values at or beyond the usual limits of such assays
- test.settings: source organism: Mycobacterium avium 104
pKd: −log10 of the molar value.
property.label: pKd

query: Name the recorded pKd of the item EHVQGDIDL in your answer.
result: ≤ 4.70

###

- assayed.target: HLA-A*03:01
- assay.protocol: IEDB peptide-MHC binding, purified MHC/competitive/fluorescence; filed as Kd, often an IC50 or EC50 that approximates it; bounds were set here for any values at or beyond the usual limits of such assays
- test.settings: source organism: Coxiella burnetii RSA 493
property.label: Kd (nM)
One number for each entry, in nM.

query: Give recorded Kd. RLSVKTFVH
result: 27.6

###

- assayed.target: HLA-B*51:01
- assay.protocol: IEDB peptide-MHC binding, purified MHC/competitive/fluorescence; filed as Kd, often an IC50 or EC50 that approximates it; bounds were set here for any values at or beyond the usual limits of such assays
- test.settings: source organism: Orthohantavirus andesense
pKd: −log10 of the molar value.
property.label: pKd

query: Return pKd for the following sequence: RMMATKDSF
result: ≤ 4.70

###

- assayed.target: HLA-A*02:06
- assay.protocol: IEDB peptide-MHC binding, purified MHC/competitive/radioactivity; filed as Kd, often an IC50 or EC50 that approximates it; bounds were set here for any values at or beyond the usual limits of such assays
- test.settings: source organism: Lassa virus Josiah
property.label: pKd
Give bare numbers, as −log10 of the molar value.

query: Please report the measured pKd for FVFSTSFYL
result: 7.86

###

- assayed.target: HLA-B*15:01
- assay.protocol: IEDB peptide-MHC binding, purified MHC/competitive/fluorescence; filed as Kd, often an IC50 or EC50 that approximates it; bounds were set here for any values at or beyond the usual limits of such assays
- test.settings: source organism: Shigella boydii CDC 3083-94
pKd: −log10 of the molar value.
property.label: pKd

query: Look up and state reported pKd for FTFEWNGRI
result: ≤ 4.70

###

- assayed.target: HLA-A*01:01
- assay.protocol: IEDB peptide-MHC binding, purified MHC/competitive/fluorescence; filed as Kd, often an IC50 or EC50 that approximates it; bounds were set here for any values at or beyond the usual limits of such assays
- test.settings: source organism: Entamoeba dispar SAW760
property.label: Kd

query: Fill in Kd for SQYDPKELL tested with HLA-A*01:01.
result: ≥ 5 µM

###

- assayed.target: HLA-A*29:02
- assay.protocol: IEDB peptide-MHC binding, purified MHC/competitive/radioactivity; filed as Kd, often an IC50 or EC50 that approximates it; bounds were set here for any values at or beyond the usual limits of such assays
- test.settings: source organism: Lymphocytic choriomeningitis virus (strain Armstrong)
property.label: pKd
Answers are plain numbers, as −log10 of the molar value.

query: Please report pKd for the following sequence: KCWLVTNGSY
result: 6.03

###

- assayed.target: HLA-A*26:02
- assay.protocol: IEDB peptide-MHC binding, purified MHC/competitive/fluorescence; filed as Kd, often an IC50 or EC50 that approximates it; bounds were set here for any values at or beyond the usual limits of such assays
- test.settings: source organism: Orthomarburgvirus marburgense
property.label: pKd
Numbers only, as −log10 of the molar value.

query: Please report pKd for the following sequence: YLAPSYRNF
result: 8.38
